- System: HT-29
- protocol-details: Viability assay with HT-29
- Type: cell-based
- reported-conditions: HT-29, viability assay per Example 57
pEC50: −log10 of the molar value. Where a name gives a salt, the structure may show the parent alone.
reported-metric: pEC50

These recorded examples may help you get a feel for the data.
Dear colleague, I am looking for the recorded pEC50 of the following compound: NCCCn1cc(-c2ccc(OC(F)(F)F)cc2)c2cc(CN3CCC(CC(F)(F)F)CC3)ccc21 [C130; HCl] ≥ 5.30

Then what about the compound FC(F)(F)Oc1ccc(-c2cn(CCNc3ccccn3)c3ccc(CN4CCN(Cc5ccccc5Cl)CC4)cc23)cc1 [C199; HCl] ? 5.00 to 5.30

Then what about the compound COc1cc(NC2CCN(Cc3ccc4c(c3)c(-c3ccc(OC(F)(F)F)cc3CN)cn4CCCN)CC2)cc(OC)c1 [C278; HCl] ? ≥ 5.30

Then what about the compound NCCCn1cc(-c2ccc(OC(F)(F)F)cc2)c2cc(CN3CCC(Nc4ccc(Cl)cc4)CC3)ccc21 [C210; HCl] ? ≥ 5.30

Then what about the compound CNCc1cc(OC(F)(F)F)ccc1-c1cn(CCCN)c2ccc(CN3CCN(Cc4ccccc4Cl)CC3)cc12 [C238; HCl] ? ≥ 5.30

***
Dear colleague, I am looking for the recorded pEC50 of the following compound: NCCCn1cc(-c2ccc(OC(F)(F)F)cc2)c2cc(CN3CCN(Cc4ccc(Cl)cc4)CC3)ccc21 [C137; HCl] ≥ 5.30
